Target: DRB1*0405 (Homo sapiens, UniProt P01903+P01911, A100R/A169T/D86S/F76Y/I96L/K127E/L162R/M171V/N62H/P40V/Q125Y/R42H/S133A/S149N/S66Y/V115G/V209L/W38E)
Experiment: biochemical
Type: binding
I'd appreciate it if you could supply pIC50 values for the items below.
Entry type: numeric. Quantity: pIC50, the -log10 of concentration in molar units.

The compound CC[C@H](C)[C@H](NC(=O)[C@@H](NC(=O)[C@@H]1CCCN1C(=O)[C@@H](NC(=O)[C@@H](NC(=O)[C@H](CC(N)=O)NC(=O)CNC(=O)[C@H](CO)NC(=O)[C@H](CS)NC(=O)[C@@H](NC(=O)[C@H](CCCCN)NC(=O)[C@@H](N)CCCNC(=N)N)C(C)C)[C@@H](C)O)[C@@H](C)O)[C@@H](C)CC)C(=O)N[C@@H](Cc1c[nH]cn1)C(=O)N[C@@H](CC(C)C)C(=O)N[C@@H](CCCCN)C(=O)O [Peptide 1601.43] showed pIC50 equal to 5.04

The compound CC(C)[C@H](NC(=O)[C@H](CCC(=O)O)NC(=O)[C@H](Cc1c[nH]c2ccccc12)NC(=O)[C@@H](NC(=O)CNC(=O)[C@@H](NC(=O)[C@H](CC(N)=O)NC(=O)CNC(=O)[C@H](Cc1ccc(O)cc1)NC(=O)[C@H](CCCCN)NC(=O)[C@@H](N)CCC(=O)O)[C@@H](C)O)[C@@H](C)O)C(=O)N[C@@H](Cc1c[nH]cn1)C(=O)N[C@@H](Cc1ccccc1)C(=O)NCC(=O)N[C@@H](CC(N)=O)C(=O)O [Peptide 1601.11] showed pIC50 equal to 4.83

====

I'd appreciate it if you could supply pIC50 values for the items below.
Molecular target: DRB1*1501 (Homo sapiens, UniProt P01903+P01911)
Assay: biochemical
Format: binding
No end group written: not given here.
Entry type: numeric. Quantity: pIC50, the -log10 of concentration in molar units.

The sequence WKLIRMECALLYTAK [Peptide 90.0199] showed pIC50 equal to 6.29

The sequence KNCILIHGAPNTGKS [Peptide 89.0055] showed pIC50 equal to 5.85

The sequence RLTVAKLMSNLLSIP [Peptide 89.0065] showed pIC50 equal to 8.02

The sequence VSFLSALKLFLKGVP [Peptide 89.0053] showed pIC50 equal to 5.84

====

Biological target: A31 (A*3101) (Homo sapiens, UniProt P04439, A270S/D185E/E176V/E277Q/F33T/G231S/G80R/H175R/I121M/I218V/I322F/K168Q/L300P/L318F/M331R/P217A/Q94H/R138Q/T323A/T345S/T97I/V358M)
Assay: biochemical
Assay type: binding
No end group written: not given here.
I'd appreciate it if you could supply log10 of IC50 values for the items below.
Answers are given as log10 of IC50 in nM.

The sequence AILGHIVRPR [Peptide 9017.0226] showed log10 of IC50 equal to 0.85

The sequence VVCTYSPALNK [Peptide 1556.35] showed log10 of IC50 equal to 3.72

The sequence LFYSKVRKYK [Peptide 88.0098] showed log10 of IC50 equal to 1.26

The sequence CTELKLVYR [Peptide 78.0334] showed log10 of IC50 equal to 1.81

The sequence STAAALYWYR [Peptide 1587.32] showed log10 of IC50 equal to 0.38

The sequence EFTAFLDAFK [Peptide 88.0179] showed log10 of IC50 equal to 4.22

The sequence LTALITPKK [Peptide 9017.0101] showed log10 of IC50 equal to 3.65

The sequence KSLFGMSLMK [Peptide 1587.13] showed log10 of IC50 equal to 2.43

The sequence ITVSAELPR [Peptide 1556.18] showed log10 of IC50 equal to 3.84

The sequence LTYISTSQR [Peptide 1589.19] showed log10 of IC50 equal to 1.59

The sequence KQEAVRHFPR [Peptide 9017.0239] showed log10 of IC50 equal to 1.00

The sequence ISYGRKKRRQK [Peptide 73.0314] showed log10 of IC50 equal to 3.50

The sequence KTVRLIKFLY [Peptide 9017.0197] showed log10 of IC50 equal to 3.11

The sequence ATCALYWYR [Peptide 88.0371] showed log10 of IC50 equal to 1.28

The sequence WTIAYIEYRK [Peptide 9017.0244] showed log10 of IC50 equal to 2.95

The sequence ILWKDIFHR [Peptide 9012.0201] showed log10 of IC50 equal to 0.81

The sequence RLLKETELRK [Peptide 9012.0248] showed log10 of IC50 equal to 3.85

The sequence MTYVAWDSVY [Peptide 1589.07] showed log10 of IC50 equal to 4.29

The sequence NVCVSWKYK [Peptide 88.0383] showed log10 of IC50 equal to 2.42

The sequence AIVVWTIAY [Peptide 9017.0115] showed log10 of IC50 equal to 3.50

The sequence KVSPIVHLK [Peptide 1589.42] showed log10 of IC50 equal to 0.78

The sequence SIVGWPAVR [Peptide 9017.0058] showed log10 of IC50 equal to 1.90

The sequence VTYHSETQR [Peptide 1589.10] showed log10 of IC50 equal to 1.82

The sequence ISWLGLRSLK [Peptide 9012.0234] showed log10 of IC50 equal to 2.42

The sequence AFDLSHFLK [Peptide 9017.0063] showed log10 of IC50 equal to 2.81

The sequence FLGAFKKFLK [Peptide 88.0169] showed log10 of IC50 equal to 1.04

The sequence KLCLRFLSK [Peptide 1571.20] showed log10 of IC50 equal to 2.43

The sequence LTNILNVLK [Peptide 1587.02] showed log10 of IC50 equal to 2.32

The sequence SQIEHWKLIR [Peptide 88.0213] showed log10 of IC50 equal to 2.71

The sequence TSNECTNNK [Peptide 1589.31] showed log10 of IC50 equal to 3.95

The sequence LVKMFCQLAK [Peptide 1556.50] showed log10 of IC50 equal to 3.52

The sequence RLCDHIDYWK [Peptide 1589.11] showed log10 of IC50 equal to 3.21

The sequence SVYGTTLEK [Peptide 78.0282] showed log10 of IC50 equal to 3.95

The sequence WTYFDTYMR [Peptide 88.0346] showed log10 of IC50 equal to 2.52

The sequence KVSEFRWYRY [Peptide 78.0053] showed log10 of IC50 equal to 1.04

The sequence FADLTVVYR [Peptide 78.0318] showed log10 of IC50 equal to 3.25

The sequence MSFLTALKR [Peptide 1587.11] showed log10 of IC50 equal to 1.69

The sequence VTVYYGVPVWR [Peptide 1525.01] showed log10 of IC50 equal to 1.28

The sequence SVRKLVEDR [Peptide 9017.0105] showed log10 of IC50 equal to 1.18

The sequence YQNFQNADK [Peptide 99.0371] showed log10 of IC50 equal to 4.65

The sequence TTITVYAEPPR [Peptide 1556.07] showed log10 of IC50 equal to 2.76

The sequence HSRIGILRQR [Peptide 9017.0242] showed log10 of IC50 equal to 0.99

The sequence FIHFRIGCR [Peptide 9017.0112] showed log10 of IC50 equal to 1.79

The sequence GILRQRRAR [Peptide 9017.0114] showed log10 of IC50 equal to 2.25

The sequence RLECVLMYK [Peptide 1589.12] showed log10 of IC50 equal to 1.64

The sequence LLRAVRIIK [Peptide 9017.0069] showed log10 of IC50 equal to 3.42

The sequence TFWNPPTTAR [Peptide 1556.02] showed log10 of IC50 equal to 1.76

The sequence KQGAMLAVFK [Peptide 88.0142] showed log10 of IC50 equal to 2.72

These data points were gathered from patent US9340577B2.
